This collection of values is drawn from the supplement of paper PMC10567573.

B1: TRIM14 (parent)
chain: YARTPTLDPDTMHARLRLSADRLT

Variants of: B1
Assay: protein stability index of a GFP-peptide fusion (GPS, HEK-293T) (PSI 1-6); higher = more stable;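 further: lentivirally expressed fusions sorted by FACS into six bins by GFP to DsRed ratio, PSI derived from sequencing read proportions per bin multiplied by bin number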
Settings: c terminus: a fixed tail appended

sequenceInput: YARTPTLDPDTMHARLRLSADPLT
protein stability index: 2.31

sequenceInput: YARTPTWDPDTMHARLRLSADRLT
protein stability index: 2.31

sequenceInput: YARTPTLDPDTMHFRLRLSADRLT
protein stability index: 1.96

sequenceInput: YARTPTLDPDTYHARLRLSADRLT
protein stability index: 2.01

sequenceInput: YARTPTLDPDTMHARLRLSADRET
protein stability index: 4.03
